All figures here come from patent US20230286973A1.

Test system: IL-2-FL/Gaussia Luciferase
assay.summary: Dox Induced IL2-FL-Gluc Assay
Format: cell-based
test.settings: ratio of IL2FLGluc IC50 to PD1ssGluc IC50
Description: Flp-In 293 T-REx™ cells were transfected with pcDNA™5/FRT/TO plasmid inserted with cDNA encoding Gaussia Luciferase fused to the 3′ end of cDNA encoding full length IL-2 (amino acids 1-153). Transfected cells were selected for resistance to the selectable markers Hygromycin and Blasticidin to create a stable cell line that contained the IL-2-FL/Gaussia Luciferase cDNA insert whose expression was regulated under the T-REx™ system. […]
Listing: 24 hr Dox Inducible IL2FLGluc 293FRT/TO: IL2/PD1 of selected molecules
reported.endpoint: 24 hr Dox Inducible IL2FLGluc 293FRT/TO: IL2/PD1

CC(C)c1ccc(/C=C/c2csc(NC(=O)c3cccn3Cc3cc(F)nc(F)c3)n2)nc1	>190
CC(C)n1cncc1/C=C/c1csc(NC(=O)c2cccn2Cc2ccncc2)n1	>8.7
CC(C)n1cnc(/C=C/c2csc(NC(=O)c3cccn3Cc3cc(F)nc(F)c3)n2)c1	>72
CC(C)c1nc(/C=C/c2csc(NC(=O)c3cccn3Cc3ccncc3)n2)cn1C	>3.5
N#CCCn1cnc(/C=C/c2csc(NC(=O)c3cccn3Cc3ccnc(F)c3)n2)c1	>4.1
CC(=O)N[C@@H](C)c1ccc(N2CCC[C@@H]2c2csc(NC(=O)c3cccn3Cc3ccncc3)n2)cc1	3.3
O=C(Nc1nc(/C=C/c2ncoc2C2CCCCC2)cs1)c1cccn1Cc1ccncc1	82
O=C(Nc1nc([C@H]2CCCN2c2ccc(OCCO)cc2)cs1)c1cccn1Cc1ccnc(F)c1	1.6

---

Tested on: multiple myeloma cell line NCI-H929
assay.summary: H929 Cell Viability Assay
Format: cell-based, human
test.settings: Homo sapiens, NCI-H929, 48 h, NCI-H929 cells, Celltiter-Glo
reported.endpoint: EC50

O=C(Nc1nc(/C=C/c2cocn2)cs1)c1cccn1Cc1ccncc1 [Compound B1]	> 25 µM
N#CCC1(Cn2cccc2C(=O)Nc2nc([C@H]3CCCN3c3ccccc3)cs2)CCC1 [Compound C9]	> 25 µM
O=C(Nc1nc([C@H]2CCCN2c2ccccc2)cs1)c1cccn1Cc1cccc(Cl)c1 [Compound C122]	> 25 µM
O=C(Nc1nc(-c2cccc(-c3ccccn3)c2)cs1)c1cccn1Cc1ccnc(F)c1 [Compound A162]	> 25 µM
O=C(NC1=NC(CCc2ccccc2)CS1)c1cccn1Cc1ccncc1 (centres unmarked) [Compound E50]	> 25 µM

---

System: IL-2-FL/Gaussia Luciferase
assay.summary: Dox Induced IL2-FL-Gluc Assay
Assay type: cell-based
test.settings: ratio of IL2FLGluc IC50 to PD1ssGluc IC50
24 hr Dox Inducible IL2FLGluc 293FRT/TO: IL2/PD1 values by entry
reported.endpoint: 24 hr Dox Inducible IL2FLGluc 293FRT/TO: IL2/PD1

CC(C#N)n1cnc(/C=C/c2csc(NC(=O)c3cccn3Cc3ccnc(F)c3)n2)c1 (stereo not shown) [Compound B107]	>52
Cc1c(/C=C/c2csc(NC(=O)c3cccn3Cc3ccncc3)n2)ncn1C(C)C [Compound B58]	>810
CCn1cnc(/C=C/c2csc(NC(=O)c3cccn3Cc3ccnc(F)c3)n2)c1 [Compound B65]	>210
Cc1cccc2nc(/C=C/c3csc(NC(=O)c4cccn4Cc4ccnc(F)c4)n3)cn12 [Compound B70]	>50
Cc1cnc(/C=C/c2csc(NC(=O)c3cccn3Cc3ccncc3)n2)o1 [Compound B35]	>54
CC(C)n1cnc(/C=C/c2csc(NC(=O)c3cccn3Cc3ccncc3)n2)c1 [Compound B37]	>370
CC(C)c1cccc2nc(/C=C/c3csc(NC(=O)c4cccn4Cc4ccnc(F)c4)n3)cn12 [Compound B73]	>51
